Exercise: for every item that follows, state its recorded inhibition.
Molecular target: UniProt P81908
Sequence (P81908 whole entry): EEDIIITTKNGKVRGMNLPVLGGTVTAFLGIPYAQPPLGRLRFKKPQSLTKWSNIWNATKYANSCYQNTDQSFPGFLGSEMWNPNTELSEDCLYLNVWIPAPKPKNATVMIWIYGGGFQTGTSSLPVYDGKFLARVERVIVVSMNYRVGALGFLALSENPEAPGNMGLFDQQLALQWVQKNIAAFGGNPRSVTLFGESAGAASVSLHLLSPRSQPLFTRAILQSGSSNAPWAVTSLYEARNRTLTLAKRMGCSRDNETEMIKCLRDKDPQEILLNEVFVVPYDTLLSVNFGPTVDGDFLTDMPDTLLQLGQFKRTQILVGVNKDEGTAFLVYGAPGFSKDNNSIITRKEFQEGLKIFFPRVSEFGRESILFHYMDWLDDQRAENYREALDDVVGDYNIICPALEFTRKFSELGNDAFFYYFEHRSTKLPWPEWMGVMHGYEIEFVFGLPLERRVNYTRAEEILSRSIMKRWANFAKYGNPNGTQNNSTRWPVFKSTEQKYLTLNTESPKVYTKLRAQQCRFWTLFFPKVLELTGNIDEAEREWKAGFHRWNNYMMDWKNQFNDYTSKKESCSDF
Experiment: Inhibition of horse serum BChE at 25 ug using butyrylthiocholine chloride as substrate preincubated for 15 mins followed by substrate addition measured every 5 mins for 15 mins by spectrophotometric method relative to control
Answers are plain numbers, in %.

// known answers, use as guide
CSc1ccc(C2c3c(n[nH]c3C)Oc3nc4c(c(N)c32)CCCC4)cc1 (stereo not drawn) : 46.7
Cc1[nH]nc2c1C(c1ccc(Cl)cc1)c1c(nc3c(c1N)CCCC3)O2 (stereo not drawn) : 46.9
Cc1[nH]nc2c1C(c1ccc(Br)cc1)c1c(nc3c(c1N)CCCC3)O2 (stereo not drawn) : 69.9

For each entry beneath this line, provide reported inhibition.
1. COc1ccc2ccccc2c1C1c2c(n[nH]c2C)Oc2nc3c(c(N)c21)CCCC3 (stereo not drawn)
2. Cc1[nH]nc2c1C(c1ccc([N+](=O)[O-])cc1)c1c(nc3c(c1N)CCCC3)O2 (stereo not drawn)
3. Cc1[nH]nc2c1C(c1ccccc1)c1c(nc3c(c1N)CCCC3)O2 (stereo not drawn)
4. Cc1[nH]nc2c1C(c1cc([N+](=O)[O-])ccc1Cl)c1c(nc3c(c1N)CCCC3)O2 (stereo not drawn)
5. Cc1ccc(C2c3c(n[nH]c3C)Oc3nc4c(c(N)c32)CCCC4)c(C)c1 (stereo not drawn)
6. Cc1[nH]nc2c1C(c1ccc(-c3ccccc3)cc1)c1c(nc3c(c1N)CCCC3)O2 (stereo not drawn)

1: 70; 2: 93.2; 3: 72.9; 4: 71.9; 5: 51.9; 6: 20.6

====

Biological target: Acetylcholinesterase (Electrophorus electricus) (UniProt O42275)
Experiment: Inhibition of electric eel AChE at 0.012 ug using acetylthiocholine iodide as substrate preincubated for 15 mins followed by substrate addition measured every 5 mins for 15 mins by spectrophotometric method relative to control
READOUT KIND: inhibition
# do not omit the unit; it follows the number

// known answers, use as guide
COc1ccc2ccccc2c1C1c2c(n[nH]c2C)Oc2nc3c(c(N)c21)CCCC3 (centres undefined) : 16.1%
Cc1[nH]nc2c1C(c1cccnc1)c1c(nc3c(c1N)CCCC3)O2 (centres undefined) : 13.1%
CSc1ccc(C2c3c(n[nH]c3C)Oc3nc4c(c(N)c32)CCCC4)cc1 (centres undefined) : 36.9%

Fill in: inhibition of Cc1[nH]nc2c1C(c1ccc(-c3ccccc3)cc1)c1c(nc3c(c1N)CCCC3)O2 (centres undefined) is ___ 43%

====

Target: Acetylcholinesterase (Electrophorus electricus)
Sequence (O42275 whole entry): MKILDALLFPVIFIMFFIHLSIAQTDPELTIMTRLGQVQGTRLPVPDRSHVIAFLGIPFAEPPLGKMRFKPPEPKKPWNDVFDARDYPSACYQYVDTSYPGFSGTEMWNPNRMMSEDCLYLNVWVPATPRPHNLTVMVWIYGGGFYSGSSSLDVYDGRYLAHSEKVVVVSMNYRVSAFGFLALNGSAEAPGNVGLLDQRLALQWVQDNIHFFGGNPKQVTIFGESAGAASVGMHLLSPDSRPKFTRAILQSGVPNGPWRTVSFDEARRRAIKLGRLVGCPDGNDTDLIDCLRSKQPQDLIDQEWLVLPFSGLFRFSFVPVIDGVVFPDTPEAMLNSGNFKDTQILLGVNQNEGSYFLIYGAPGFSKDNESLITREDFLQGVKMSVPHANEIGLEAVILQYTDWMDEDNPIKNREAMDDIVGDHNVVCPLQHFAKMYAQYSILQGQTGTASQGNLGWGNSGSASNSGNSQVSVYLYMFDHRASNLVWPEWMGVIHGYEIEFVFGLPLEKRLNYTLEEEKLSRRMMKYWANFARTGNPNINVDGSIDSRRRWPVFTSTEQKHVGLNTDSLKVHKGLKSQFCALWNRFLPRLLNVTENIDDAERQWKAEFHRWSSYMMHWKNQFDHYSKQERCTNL
Exercise: for every item that follows, state its recorded log10(IC50).
Heads up: the numbers are on a log10 scale; they represent IC50 in nM.

Cc1[nH]nc2c1C(c1cc([N+](=O)[O-])ccc1Cl)c1c(nc3c(c1N)CCCC3)O2 (stereo not given) : 3.02

For each entry beneath this line, provide reported log10(IC50).
1. CSc1ccc(C2c3c(n[nH]c3C)Oc3nc4c(c(N)c32)CCCC4)cc1 (stereo not given)
2. Cc1[nH]nc2c1C(c1ccc(Cl)cc1)c1c(nc3c(c1N)CCCC3)O2 (stereo not given)
3. COc1ccc2ccccc2c1C1c2c(n[nH]c2C)Oc2nc3c(c(N)c21)CCCC3 (stereo not given)

[1.76, 3.22, 2.11]

Query for Acetylcholinesterase (Electrophorus electricus): what log10(IC50) does the record show for Cc1[nH]nc2c1C(c1cccnc1)c1c(nc3c(c1N)CCCC3)O2 (stereo not given) ? 2.52
